# System: Staphylococcus aureus VISA (code 3798)
# Measurement parameters: S. aureus VISA code 3798; 0.02% albumine bovine serum; read after 24 h
Readout type: Minimal Inhibitory Concentrations (µg/mL)
Numbers only, in µg/mL.

# Compound, Target or test system, Value observed
rows = [
    ("C=C1NC(=O)[C@H](C(C)C)NC(=O)[C@H](NC(=O)/C(=C/C)NC(=O)[C@@H](N)[C@@H](C)CC)CSC[C@@H](C(=O)N[C@H]2C(=O)N3CCC[C@H]3C(=O)NCC(=O)N[C@H](C(=O)N[C@H](C(=O)N[C@@H]3CSC[C@@H]4NC(=O)CNC(=O)[C@@H](CSC[C@@H]5NC(=O)[C@H](Cc6c[nH]cn6)NC(=O)[C@@H](CSC[C@@H](C(=O)NCCN)NC5=O)NC4=O)NC(=O)CNC(=O)CNC(=O)CNC(=O)[C@H](CCC(=O)NCCN)NC3=O)[C@@H](C)O)CS[C@H]2C)NC(=O)[C@H](Cc2c[nH]c3ccccc23)NC1=O [Compound 7]", "Staphylococcus aureus VISA (code 3798)", 0.50),
]

In the following, a different compound is considered.
Fill in reported Minimal Inhibitory Concentrations for this entry: C=C1NC(=O)[C@H](C(C)C)NC(=O)[C@H](NC(=O)/C(=C/C)NC(=O)[C@@H](N)[C@@H](C)CC)CSC[C@@H](C(=O)N[C@H]2C(=O)N3CCC[C@H]3C(=O)NCC(=O)N[C@H](C(=O)N[C@H](C(=O)N[C@@H]3CSC[C@@H]4NC(=O)CNC(=O)[C@@H](CSC[C@@H]5NC(=O)[C@H](Cc6c[nH]cn6)NC(=O)[C@@H](CSC[C@@H](C(=O)N(C)C)NC5=O)NC4=O)NC(=O)CNC(=O)CNC(=O)CNC(=O)[C@H](CCC(=O)N(C)C)NC3=O)[C@@H](C)O)CS[C@H]2C)NC(=O)[C@H](Cc2c[nH]c3ccccc23)NC1=O [Compound 2] 4

###

# Test system: Enterococcus faecium VanS (code 568)
# Measurement parameters: E. faecium VanS code 568; 0.02% albumine bovine serum; read after 24 h
Readout type: Minimal Inhibitory Concentrations (µg/mL)
Give bare numbers, in µg/mL.

Use the examples below as a reference point.
# Molecule, Target or test system, Minimal Inhibitory Concentrations / µg/mL
measured = [
    ("C=C1NC(=O)[C@H](C(C)C)NC(=O)[C@H](NC(=O)/C(=C/C)NC(=O)[C@@H](N)[C@@H](C)CC)CSC[C@@H](C(=O)N[C@H]2C(=O)N3CCC[C@H]3C(=O)NCC(=O)N[C@H](C(=O)N[C@H](C(=O)N[C@@H]3CSC[C@@H]4NC(=O)CNC(=O)[C@@H](CSC[C@@H]5NC(=O)[C@H](Cc6c[nH]cn6)NC(=O)[C@@H](CSC[C@@H](C(=O)NCCN)NC5=O)NC4=O)NC(=O)CNC(=O)CNC(=O)CNC(=O)[C@H](CCC(=O)NCCN)NC3=O)[C@@H](C)O)CS[C@H]2C)NC(=O)[C@H](Cc2c[nH]c3ccccc23)NC1=O [Compound 7]", "Enterococcus faecium VanS (code 568)", 1),
    ("C=C1NC(=O)[C@H](C(C)C)NC(=O)[C@H](NC(=O)/C(=C/C)NC(=O)[C@@H](N)[C@@H](C)CC)CSC[C@@H](C(=O)N[C@H]2C(=O)N3CCC[C@H]3C(=O)NCC(=O)N[C@H](C(=O)N[C@H](C(=O)N[C@@H]3CSC[C@@H]4NC(=O)CNC(=O)[C@@H](CSC[C@@H]5NC(=O)[C@H](Cc6c[nH]cn6)NC(=O)[C@@H](CSC[C@@H](C(=O)N(C)C)NC5=O)NC4=O)NC(=O)CNC(=O)CNC(=O)CNC(=O)[C@H](CCC(=O)N(C)C)NC3=O)[C@@H](C)O)CS[C@H]2C)NC(=O)[C@H](Cc2c[nH]c3ccccc23)NC1=O [Compound 2]", "Enterococcus faecium VanS (code 568)", 16),
    ("C=C1NC(=O)[C@H](C(C)C)NC(=O)[C@H](NC(=O)/C(=C/C)NC(=O)[C@@H](N)[C@@H](C)CC)CSC[C@@H](C(=O)N[C@H]2C(=O)N3CCC[C@H]3C(=O)NCC(=O)N[C@H](C(=O)N[C@H](C(=O)N[C@@H]3CSC[C@@H]4NC(=O)CNC(=O)[C@@H](CSC[C@@H]5NC(=O)[C@H](Cc6c[nH]cn6)NC(=O)[C@@H](CSC[C@@H](C(=O)NC6CCCCC6)NC5=O)NC4=O)NC(=O)CNC(=O)CNC(=O)CNC(=O)[C@H](CCC(=O)NC4CCCCC4)NC3=O)[C@@H](C)O)CS[C@H]2C)NC(=O)[C@H](Cc2c[nH]c3ccccc23)NC1=O [Compound 1]", "Enterococcus faecium VanS (code 568)", 2),
]

Proceed to the following item.
Using known records, supply Minimal Inhibitory Concentrations for C=C1NC(=O)[C@H](C(C)C)NC(=O)[C@H](NC(=O)/C(=C/C)NC(=O)[C@@H](N)[C@@H](C)CC)CSC[C@@H](C(=O)N[C@H]2C(=O)N3CCC[C@H]3C(=O)NCC(=O)N[C@H](C(=O)N[C@H](C(=O)N[C@@H]3CSC[C@@H]4NC(=O)CNC(=O)[C@@H](CSC[C@@H]5NC(=O)[C@H](Cc6c[nH]cn6)NC(=O)[C@@H](CSC[C@@H](C(=O)NCCN(C)C)NC5=O)NC4=O)NC(=O)CNC(=O)CNC(=O)CNC(=O)[C@H](CCC(=O)NCCN(C)C)NC3=O)[C@@H](C)O)CS[C@H]2C)NC(=O)[C@H](Cc2c[nH]c3ccccc23)NC1=O [Compound 4] 1

###

Give measured Minimal Inhibitory Concentrations for each item. Keep answers brief.
# Tested on: S. haemolyticus Met-R (code 1729)
# Measurement parameters: 0.02% albumine bovine serum, read after 24 h
One number for each entry, in µg/mL.

Please review the following examples before continuing.
# Chemical structure, Minimal Inhibitory Concentrations (µg/mL)
rows = [
    ("C=C1NC(=O)[C@H](C(C)C)NC(=O)[C@H](NC(=O)/C(=C/C)NC(=O)[C@@H](N)[C@@H](C)CC)CSC[C@@H](C(=O)N[C@H]2C(=O)N3CCC[C@H]3C(=O)NCC(=O)N[C@H](C(=O)N[C@H](C(=O)N[C@@H]3CSC[C@@H]4NC(=O)CNC(=O)[C@@H](CSC[C@@H]5NC(=O)[C@H](Cc6c[nH]cn6)NC(=O)[C@@H](CSC[C@@H](C(=O)NCCCN(C)C)NC5=O)NC4=O)NC(=O)CNC(=O)CNC(=O)CNC(=O)[C@H](CCC(=O)NCCCN(C)C)NC3=O)[C@@H](C)O)CS[C@H]2C)NC(=O)[C@H](Cc2c[nH]c3ccccc23)NC1=O", 1),
    ("C=C1NC(=O)[C@H](C(C)C)NC(=O)[C@H](NC(=O)/C(=C/C)NC(=O)[C@@H](N)[C@@H](C)CC)CSC[C@@H](C(=O)N[C@H]2C(=O)N3CCC[C@H]3C(=O)NCC(=O)N[C@H](C(=O)N[C@H](C(=O)N[C@@H]3CSC[C@@H]4NC(=O)CNC(=O)[C@@H](CSC[C@@H]5NC(=O)[C@H](Cc6c[nH]cn6)NC(=O)[C@@H](CSC[C@@H](C(=O)NCCOC)NC5=O)NC4=O)NC(=O)CNC(=O)CNC(=O)CNC(=O)[C@H](CCC(=O)NCCOC)NC3=O)[C@@H](C)O)CS[C@H]2C)NC(=O)[C@H](Cc2c[nH]c3ccccc23)NC1=O", 32),
    ("C=C1NC(=O)[C@H](C(C)C)NC(=O)[C@H](NC(=O)/C(=C/C)NC(=O)[C@@H](N)[C@@H](C)CC)CSC[C@@H](C(=O)N[C@H]2C(=O)N3CCC[C@H]3C(=O)NCC(=O)N[C@H](C(=O)N[C@H](C(=O)N[C@@H]3CSC[C@@H]4NC(=O)CNC(=O)[C@@H](CSC[C@@H]5NC(=O)[C@H](Cc6c[nH]cn6)NC(=O)[C@@H](CSC[C@@H](C(=O)N(C)C)NC5=O)NC4=O)NC(=O)CNC(=O)CNC(=O)CNC(=O)[C@H](CCC(=O)N(C)C)NC3=O)[C@@H](C)O)CS[C@H]2C)NC(=O)[C@H](Cc2c[nH]c3ccccc23)NC1=O", 32),
    ("C=C1NC(=O)[C@H](C(C)C)NC(=O)[C@H](NC(=O)/C(=C/C)NC(=O)[C@@H](N)[C@@H](C)CC)CSC[C@@H](C(=O)N[C@H]2C(=O)N3CCC[C@H]3C(=O)NCC(=O)N[C@H](C(=O)N[C@H](C(=O)N[C@@H]3CSC[C@@H]4NC(=O)CNC(=O)[C@@H](CSC[C@@H]5NC(=O)[C@H](Cc6c[nH]cn6)NC(=O)[C@@H](CSC[C@@H](C(=O)NCCN)NC5=O)NC4=O)NC(=O)CNC(=O)CNC(=O)CNC(=O)[C@H](CCC(=O)NCCN)NC3=O)[C@@H](C)O)CS[C@H]2C)NC(=O)[C@H](Cc2c[nH]c3ccccc23)NC1=O", 0.25),
    ("C=C1NC(=O)[C@H](C(C)C)NC(=O)[C@H](NC(=O)/C(=C/C)NC(=O)[C@@H](N)[C@@H](C)CC)CSC[C@@H](C(=O)N[C@H]2C(=O)N3CCC[C@H]3C(=O)NCC(=O)N[C@H](C(=O)N[C@H](C(=O)N[C@@H]3CSC[C@@H]4NC(=O)CNC(=O)[C@@H](CSC[C@@H]5NC(=O)[C@H](Cc6c[nH]cn6)NC(=O)[C@@H](CSC[C@@H](C(=O)NCCN(C)C)NC5=O)NC4=O)NC(=O)CNC(=O)CNC(=O)CNC(=O)[C@H](CCC(=O)NCCN(C)C)NC3=O)[C@@H](C)O)CS[C@H]2C)NC(=O)[C@H](Cc2c[nH]c3ccccc23)NC1=O", 0.50),
    ("C=CCNC(=O)CC[C@@H]1NC(=O)[C@H](NC(=O)[C@@H](NC(=O)[C@@H]2CS[C@@H](C)[C@@H](NC(=O)[C@@H]3CSC[C@@H](NC(=O)/C(=C/C)NC(=O)[C@@H](N)[C@@H](C)CC)C(=O)N[C@@H](C(C)C)C(=O)NC(=C)C(=O)N[C@@H](Cc4c[nH]c5ccccc45)C(=O)N3)C(=O)N3CCC[C@H]3C(=O)NCC(=O)N2)[C@@H](C)O)CSC[C@@H]2NC(=O)CNC(=O)[C@@H](CSC[C@@H]3NC(=O)[C@H](Cc4c[nH]cn4)NC(=O)[C@@H](CSC[C@@H](C(=O)NCC=C)NC3=O)NC2=O)NC(=O)CNC(=O)CNC(=O)CNC1=O", 32),
]

Quick request: Minimal Inhibitory Concentrations for each listed item, please.
1. C=C1NC(=O)[C@H](C(C)C)NC(=O)[C@H](NC(=O)/C(=C/C)NC(=O)[C@@H](N)[C@@H](C)CC)CSC[C@@H](C(=O)N[C@H]2C(=O)N3CCC[C@H]3C(=O)NCC(=O)N[C@H](C(=O)N[C@H](C(=O)N[C@@H]3CSC[C@@H]4NC(=O)CNC(=O)[C@@H](CSC[C@@H]5NC(=O)[C@H](Cc6c[nH]cn6)NC(=O)[C@@H](CSC[C@@H](C(=O)NCCCCN(C)C)NC5=O)NC4=O)NC(=O)CNC(=O)CNC(=O)CNC(=O)[C@H](CCC(=O)NCCCCN(C)C)NC3=O)[C@@H](C)O)CS[C@H]2C)NC(=O)[C@H](Cc2c[nH]c3ccccc23)NC1=O
2. C=C1NC(=O)[C@H](C(C)C)NC(=O)[C@H](NC(=O)/C(=C/C)NC(=O)[C@@H](N)[C@@H](C)CC)CSC[C@@H](C(=O)N[C@H]2C(=O)N3CCC[C@H]3C(=O)NCC(=O)N[C@H](C(=O)N[C@H](C(=O)N[C@@H]3CSC[C@@H]4NC(=O)CNC(=O)[C@@H](CSC[C@@H]5NC(=O)[C@H](Cc6c[nH]cn6)NC(=O)[C@@H](CSC[C@@H](C(=O)NC6CCCCC6)NC5=O)NC4=O)NC(=O)CNC(=O)CNC(=O)CNC(=O)[C@H](CCC(=O)NC4CCCCC4)NC3=O)[C@@H](C)O)CS[C@H]2C)NC(=O)[C@H](Cc2c[nH]c3ccccc23)NC1=O

1
32
